system-under-test: human M1 receptor (Homo sapiens (Human))
Sequence (P11229 whole entry): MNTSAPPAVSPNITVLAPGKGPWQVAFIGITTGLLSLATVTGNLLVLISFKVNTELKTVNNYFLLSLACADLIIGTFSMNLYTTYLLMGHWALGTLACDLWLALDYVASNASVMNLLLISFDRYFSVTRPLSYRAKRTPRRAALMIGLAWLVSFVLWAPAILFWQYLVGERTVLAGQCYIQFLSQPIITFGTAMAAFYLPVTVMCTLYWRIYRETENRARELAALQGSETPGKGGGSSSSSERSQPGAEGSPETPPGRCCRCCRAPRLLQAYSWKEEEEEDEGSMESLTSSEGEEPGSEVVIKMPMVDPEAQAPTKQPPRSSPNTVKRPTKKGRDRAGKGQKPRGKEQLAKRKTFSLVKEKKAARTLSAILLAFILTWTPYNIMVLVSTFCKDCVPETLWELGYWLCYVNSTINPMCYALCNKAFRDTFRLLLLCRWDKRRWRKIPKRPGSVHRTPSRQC
test-protocol: Radioligand (tritiated N-methylscopolamine) binding assay, M1
condition-label: CHO cell membranes expressing human M1; 1.5 nM tritiated N-methylscopolamine; 90 min, 37° C.; read-out: Ki against M1 receptor (Table 21, M1)
Experimental: Binding affinity (Ki) of compounds was measured by inhibition of radioligand binding to membranes from CHO cells expressing human M1, M2, M3, M4 and M5 receptors. […] Harvesting and radioactivity counting was conducted as previously described (see, e.g., Hoare et al., Mol. Pharmacol. 2003 63(3):751-65); Erratum at Mol. Pharmacol. 2005 July; 68(1): 260).
pKi: −log10 of the molar value.
assay-metric: pKi

Reference set (2 entries):
Inquiry: # query: pKi of entry C[C@@H]1CN(c2nc(Cl)cc(C#N)n2)C[C@H](C)N1C(=O)NCCC1CCN(Cc2ccccc2)CC1
Reply text: 6.00 to 7.00

Inquiry: Can you check C[C@@H]1CN(c2cc(F)cc(C#N)c2)CCN1C(=O)NCCC1CCN(Cc2ccccc2)CC1 next?
Reply text: < 6.00

***
Inquiry: Request the reported pKi associated with C[C@@H]1CN(c2ncc(C(F)(F)F)c(N)n2)C[C@H](C)N1C(=O)NCCC1CCN(Cc2ccccc2)CC1
Reply text: 6.00 to 7.00

* * *

Listed here are compounds together with their documented pKi.
system-under-test: human M1 receptor (Homo sapiens (Human))
test-protocol: Radioligand (tritiated N-methylscopolamine) binding assay, M1
condition-label: CHO cell membranes expressing human M1; 1.5 nM tritiated N-methylscopolamine; 90 min, 37° C.; read-out: Ki against M1 receptor (Table 21, M1)
pKi: −log10 of the molar value.

Inquiry: Fill blank: measured pKi of the compound C[C@@H]1CN(c2ccc(OC(F)(F)F)cc2F)CCN1C(=O)NCCC1CCN(Cc2ccccc2)CC1 [10-12] is ____.
Reply text: 6.00 to 7.00

Inquiry: Now the same for C[C@@H]1CN(c2ccc(F)c(C#N)c2)CCN1C(=O)NCCC1(O)CCN(Cc2ccccc2)CC1 [7-11]
Reply text: < 6.00

Inquiry: Try this compound too: C[C@@H]1CN(c2nc(Cl)cc(C#N)n2)CCN1C(=O)NCCC1CCN(Cc2ccccc2)CC1 [5-5]
Reply text: 6.00 to 7.00

Please look at the following compound next.
Inquiry: Quick check: pKi of C[C@@H]1CN(c2ccc(C#N)c(OC(F)(F)F)c2)CCN1C(=O)NCCC1CCN(Cc2ccccc2)CC1 [22-17] ?
Reply text: 6.00 to 7.00

* * *

The compounds listed here are annotated with their Ki.
system-under-test: human M4 receptor (Homo sapiens (Human), UniProt P08173)
Sequence (P08173 whole entry): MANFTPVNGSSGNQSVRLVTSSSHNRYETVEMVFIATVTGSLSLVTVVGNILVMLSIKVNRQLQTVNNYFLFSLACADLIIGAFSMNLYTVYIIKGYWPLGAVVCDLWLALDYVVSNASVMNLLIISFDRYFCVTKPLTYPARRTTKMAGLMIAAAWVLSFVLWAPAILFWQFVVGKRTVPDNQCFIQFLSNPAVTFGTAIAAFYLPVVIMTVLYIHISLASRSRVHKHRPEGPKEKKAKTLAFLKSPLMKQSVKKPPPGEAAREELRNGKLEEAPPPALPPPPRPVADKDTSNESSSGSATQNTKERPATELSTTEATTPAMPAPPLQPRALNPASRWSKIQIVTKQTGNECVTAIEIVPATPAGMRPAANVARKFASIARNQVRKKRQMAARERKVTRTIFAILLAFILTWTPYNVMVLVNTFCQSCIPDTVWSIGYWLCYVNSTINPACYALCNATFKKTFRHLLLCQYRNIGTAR
test-protocol: Radioligand (tritiated N-methylscopolamine) binding assay, M4
condition-label: Ki against the M4 receptor; membranes from CHO cells expressing human M4; tritiated N-methylscopolamine 1.5 nM; read-out: Ki

Consider the reported Ki for these compounds:
Inquiry: For the record N#Cc1cc(N2CCC(C(=O)NCCC3(CO)CCN(Cc4ccccc4)CC3)CC2)ccc1F , what value of Ki is listed for human M4 receptor (Homo sapiens (Human), UniProt P08173)?
Reply text: 10 to 100 nM

Inquiry: Ok, now O=C(c1ccc(-c2cccs2)cc1)N(C1CC1)C1CCN(Cc2ccccc2)CC1
Reply text: 100 to 1000 nM

Inquiry: One more compound: N#Cc1cnc(N2CCN(C(=O)NCCC3CCN(Cc4ccccc4)CC3)C[C@H]2CO)nc1
Reply text: 100 to 1000 nM

Inquiry: Also check C[C@@H]1CN(c2cc(F)c(Cl)c(F)c2)CCN1C(=O)NCCC1CCN(Cc2ccccc2)CC1
Reply text: < 10 nM

Inquiry: Follow-up item: C[C@@H]1CN(c2ncc(C#N)cn2)C[C@H](C)N1C(=O)NCCC1CCN(CC2(C)COC2)CC1
Reply text: 100 to 1000 nM

Inquiry: How about C[C@@H]1CN(c2ccc(OC(F)(F)F)c(C#N)c2)CCN1C(=O)NCCN1CCN(Cc2ccccc2)CC1 ?
Reply text: 10 to 100 nM

Next:
Inquiry: human M4 receptor (Homo sapiens (Human), UniProt P08173) / Ki / O=C(NCCC1CCN(Cc2ccccc2)CC1)C1CCN(c2ccc(OC(F)(F)F)cc2F)CC1 : value?
Reply text: 10 to 100 nM

Inquiry: Now this one: C[C@@H]1CN(c2ccc(F)nc2)CCN1C(=O)NCCC1CCN(Cc2ccccc2)CC1
Reply text: 10 to 100 nM

* * *

system-under-test: UniProtKB P11229
test-protocol: Radioligand (tritiated N-methylscopolamine) binding assay, M1
condition-label: CHO cell membranes expressing human M1; 1.5 nM tritiated N-methylscopolamine; 90 min, 37° C.; read-out: Ki against M1 receptor (Table 21, M1)
assay-metric: Ki

Inquiry: Entry C[C@@H]1CN(c2cc(F)cc(F)c2)CCN1C(=O)NCCC1CCN(Cc2ccccc2)CC1 has what Ki?
Reply text: 0.1 to 1 µM

Inquiry: What do we get for C[C@@H]1CN(c2cc(F)c(F)c(F)c2)CCN1C(=O)NCCC1(O)CCN(Cc2ccccc2)CC1 ?
Reply text: > 1 µM

Inquiry: Next compound: C[C@@H]1CN(c2nccc(C#N)n2)C[C@H](C)N1C(=O)NCCC1CCN(Cc2ccccc2)CC1
Reply text: > 1 µM

Inquiry: Check C[C@@H]1CN(c2cc(F)c(F)c(F)c2)CCN1C(=O)NCCC1CCN(Cc2ccccc2)CC1CO (stereo partly shown) too.
Reply text: > 1 µM

Others:
Inquiry: What Ki value was documented for this compound, C[C@@H]1CN(c2ccc(OC(F)(F)F)nc2)CCN1C(=O)NCCC1CCN(Cc2ccccc2)CC1 ?
Reply text: 0.1 to 1 µM

Inquiry: Next: C[C@@H]1CN(c2ccc(OC(F)(F)F)c(C#N)c2)CCN1C(=O)NCCC1(O)CCN(Cc2ccccc2)CC1
Reply text: > 1 µM

Inquiry: Please do the same for C[C@@H]1CN(c2ncc(C(F)(F)F)cn2)C[C@H](C)N1C(=O)NCCC1CCN(Cc2ccccc2)CC1 as well.
Reply text: 0.1 to 1 µM

* * *

system-under-test: human M3 receptor (Homo sapiens (Human), UniProt P20309)
Sequence (P20309 whole entry): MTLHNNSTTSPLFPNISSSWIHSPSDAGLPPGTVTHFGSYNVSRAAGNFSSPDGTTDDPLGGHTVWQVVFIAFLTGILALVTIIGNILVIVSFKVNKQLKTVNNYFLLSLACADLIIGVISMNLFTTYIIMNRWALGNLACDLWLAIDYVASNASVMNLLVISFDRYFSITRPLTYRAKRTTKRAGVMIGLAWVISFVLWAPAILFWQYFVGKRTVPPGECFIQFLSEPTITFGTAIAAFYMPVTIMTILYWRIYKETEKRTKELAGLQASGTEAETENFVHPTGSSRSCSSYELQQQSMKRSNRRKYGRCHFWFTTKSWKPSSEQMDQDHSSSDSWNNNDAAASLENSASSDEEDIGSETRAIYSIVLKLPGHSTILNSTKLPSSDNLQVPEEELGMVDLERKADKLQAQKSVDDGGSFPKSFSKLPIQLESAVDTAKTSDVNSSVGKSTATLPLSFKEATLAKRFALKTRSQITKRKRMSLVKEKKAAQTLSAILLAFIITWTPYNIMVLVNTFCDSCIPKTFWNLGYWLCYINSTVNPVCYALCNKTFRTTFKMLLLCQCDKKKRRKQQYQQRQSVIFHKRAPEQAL
pKi: −log10 of the molar value.
assay-metric: pKi

Inquiry: API: value(readout= pKi, system= human M3 receptor (Homo sapiens (Human), UniProt P20309), query= C[C@@H]1CN(c2ncc(C#N)cn2)C[C@H](C)N1C(=O)NCCC1CCN(Cc2ccccc2)CC1 [5-20] )
Reply text: < 6.00

New cases:
Inquiry: Request - read-out pKi | tested on human M3 receptor (Homo sapiens (Human), UniProt P20309) | molecule O=C(NCCC1CCN(Cc2ccccc2)CC1)N1CCN(c2ccc(C(F)(F)F)cc2)CC1 [4-76]
Reply text: < 6.00

Inquiry: What do you get for C[C@@H]1CN(c2ccc(C#N)c(OC(F)(F)F)c2)CCN1C(=O)NCCC1CCN(Cc2ccccc2)CC1 [22-17] ?
Reply text: < 6.00

Inquiry: And then C[C@@H]1CN(c2ccc(Cl)c(F)c2)CCN1C(=O)NCCC1CCN(Cc2ccccc2)CC1 [22-14] , what is it?
Reply text: 6.00 to 7.00

* * *

Catalogue of molecules with associated pKi
system-under-test: human M4 receptor (Homo sapiens (Human), UniProt P08173)
test-protocol: Radioligand (tritiated N-methylscopolamine) binding assay, M4
condition-label: Ki against the M4 receptor; membranes from CHO cells expressing human M4; tritiated N-methylscopolamine 1.5 nM; read-out: Ki
pKi: −log10 of the molar value.

Guide cases for pKi, answers given:
Inquiry: Give pKi (human M4 receptor (Homo sapiens (Human), UniProt P08173)) of the following molecule: Cc1c(C(=O)NCCC2CCN(Cc3ccccn3)CC2)cnc2cc(-c3cccc(C(F)(F)F)c3)nn12
Reply text: 6.00 to 7.00

Inquiry: Now the same for CN(C1CCN(C(=O)C2CCN(c3ccc(OC(F)(F)F)cc3)CC2)CC1)[C@@H]1CCN(Cc2ccccc2)C1
Reply text: 7.00 to 8.00

***
Inquiry: Recall the recorded pKi for Cc1c(C(=O)NCCC2(O)CCN(Cc3ccccc3)CC2)cnc2cc(-c3cccc(C(F)(F)F)c3)nn12 with human M4 receptor (Homo sapiens (Human), UniProt P08173) and state it.
Reply text: > 8.00

Inquiry: Same again, this time with C[C@@H]1CN(c2nccc(C(F)(F)F)n2)CCN1C(=O)NCCC1CCN(Cc2ccccc2)CC1
Reply text: > 8.00

* * *

system-under-test: human M2 receptor (Homo sapiens (Human), UniProt P08172)
Sequence (P08172 whole entry): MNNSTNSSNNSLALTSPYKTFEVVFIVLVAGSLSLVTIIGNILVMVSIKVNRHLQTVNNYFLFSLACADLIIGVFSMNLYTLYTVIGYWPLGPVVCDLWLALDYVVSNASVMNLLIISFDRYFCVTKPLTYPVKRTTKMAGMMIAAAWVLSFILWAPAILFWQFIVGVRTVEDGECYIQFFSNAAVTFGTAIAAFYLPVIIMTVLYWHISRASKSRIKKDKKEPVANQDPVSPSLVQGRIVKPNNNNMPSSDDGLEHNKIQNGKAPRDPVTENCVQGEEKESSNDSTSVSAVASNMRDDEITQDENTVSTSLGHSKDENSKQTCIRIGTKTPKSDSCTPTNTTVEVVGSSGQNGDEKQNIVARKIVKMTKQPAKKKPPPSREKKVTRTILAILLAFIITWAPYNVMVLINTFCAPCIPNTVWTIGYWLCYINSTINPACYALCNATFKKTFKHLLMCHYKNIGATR
test-protocol: Radioligand (tritiated N-methylscopolamine) binding assay, M2
condition-label: CHO cell membranes expressing human M2; 1.5 nM tritiated N-methylscopolamine; 90 min, 37° C.; read-out: Ki against M2 receptor (Table 21, M2)
pKi: −log10 of the molar value.
assay-metric: pKi

Inquiry: Form field: reported pKi of O=C(NCCC1CCN(Cc2ccccc2)CC1)C1CCN(c2cc(F)c(F)c(F)c2)CC1 [10-43]
Reply text: 6.00 to 7.00

Inquiry: Try this compound too: C[C@@H]1CN(c2ncc(Cl)c(N)n2)CCN1C(=O)NCCC1CCN(Cc2ccccc2)CC1 [5-32]
Reply text: 7.00 to 8.00

Inquiry: Next up: O=C(NCCC1CCN(Cc2ccccc2)CC1CO)N1CCN(c2cc(F)c(F)c(F)c2)CC1 (stereo not drawn) [3-19]
Reply text: 6.00 to 7.00

Inquiry: Next record, please: C[C@H]1CN(c2ncc(Cl)cn2)CCC1C(=O)NCCC1CCN(Cc2ccccc2)CC1 (stereo partly drawn) [20-3]
Reply text: 6.00 to 7.00

Inquiry: Here is the next compound: C[C@@H]1CN(c2cc(F)c(C#N)c(F)c2)CCN1C(=O)NCCC1CCN(Cc2ccccc2)CC1 [22-12]
Reply text: 7.00 to 8.00

Inquiry: Item: C[C@@H]1CN(C(=O)NCCC2CCN(Cc3ccccc3)CC2)CCN1c1ccc(OC(F)(F)F)c(F)c1 [4-22]
Reply text: 6.00 to 7.00

Inquiry: Same again, this time with N#Cc1cc(N2CCC(C(=O)NCCC3(O)CCN(Cc4ccccc4)CC3)CC2)ccc1OC(F)(F)F [10-20]
Reply text: 6.00 to 7.00

Inquiry: Try C[C@@H]1CN(c2cc(F)c(F)c(F)c2)CCN1C(=O)NCCC1CCN(Cc2ccc(O)cc2)CC1 [6-27] next.
Reply text: 7.00 to 8.00

Inquiry: Same read-out for C[C@@H]1CN(c2ccc(C#N)cc2)C[C@H](C)N1C(=O)NCCC1CCN(Cc2ccccc2)CC1 [22-2] ?
Reply text: 6.00 to 7.00

Inquiry: What about C[C@@H]1CN(c2ncc(C#N)cn2)C[C@H](C)N1C(=O)NCCC1CCN(Cc2ccc3[nH]ccc3c2)CC1 [6-47] ?
Reply text: > 8.00

Inquiry: // next record C[C@@H]1CN(c2ccc(OC(F)(F)F)c(C#N)c2)CCN1C(=O)NC[C@H](O)C1CCN(Cc2ccccc2)CC1 [7-10]
Reply text: 6.00 to 7.00

Origin of values: patent US11033539B2
